# Test system: itchgrass
# Test details: Test D itchgrass
# Type: in vivo, Rottboellia exaltata
# Measurement parameters: Rate 16 g/ha; Preemergence; 0 to 100 scale, 0 no injury, 100 complete control
Endpoint label: Plant response rating, Itchgrass

# Sample smiles, Endpoint label, Quantitative readout
data = [
    ("Cc1cccc(C)c1-n1c(=O)on(C(=O)N(c2ccccc2)C(C)C)c1=O", "Plant response rating, Itchgrass", 0),
    ("C=CCn1c(=O)on(C(=O)N(c2ccccc2)C(C)C)c1=O", "Plant response rating, Itchgrass", 50),
    ("CCn1c(=O)on(C(=O)N(c2ccc(Cl)cc2)C(C)C)c1=O", "Plant response rating, Itchgrass", 0),
    ("CC(C)N(C(=O)n1oc(=O)n(Cc2cccs2)c1=O)c1ccccc1", "Plant response rating, Itchgrass", 0),
]
